target: human CB2 receptors (Homo sapiens, UniProt P34972); construct: expressed in transfected cells; host or cells: HEK293; assay: human CB2 radioligand binding assay ([3H]CP-55,940 competition)
Sequence (P34972 whole entry): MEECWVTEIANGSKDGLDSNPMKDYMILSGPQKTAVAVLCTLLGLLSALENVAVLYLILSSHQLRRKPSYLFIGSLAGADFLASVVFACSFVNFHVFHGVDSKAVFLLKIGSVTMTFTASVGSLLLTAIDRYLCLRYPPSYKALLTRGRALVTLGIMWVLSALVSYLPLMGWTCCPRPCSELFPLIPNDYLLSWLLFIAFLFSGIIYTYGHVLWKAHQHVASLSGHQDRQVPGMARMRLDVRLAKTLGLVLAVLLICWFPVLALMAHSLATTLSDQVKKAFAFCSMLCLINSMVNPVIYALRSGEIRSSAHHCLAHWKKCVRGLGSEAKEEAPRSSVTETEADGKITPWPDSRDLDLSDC
METRIC: Ki (nM)
Numbers only, in nM.

> print(dat)
                                 cpd.smiles                        measurement.target  measurement.unit  readout.number
1  CCCCc1cn(C(C)(C)C)s/c1=N\C(=O)[C@@H]1CC[C@](C)(C(=O)NCC)C1(C)C  human CB2 receptors (Homo sapiens, UniProt P34972)                nM              36
2  CCCCc1cn(C(C)(C)C)s/c1=N\C(=O)c1cc(Cl)ccc1OCCF  human CB2 receptors (Homo sapiens, UniProt P34972)                nM             5.5
3  CCCCc1cn(C(C)(C)C)s/c1=N\C(=O)c1cc(C(F)(F)F)ccc1OC  human CB2 receptors (Homo sapiens, UniProt P34972)                nM             3.7

# next compound below
[ask] Return Ki (reported value) for this compound: CCCCc1cn(C(C)(C)C)s/c1=N\C(=O)[C@@]1(C)CC[C@@H](C(=O)OCC)C1(C)C
[reply] 16

----------
target: human CB2 receptors (Homo sapiens); construct: expressed in transfected cells; host or cells: HEK293; assay: human CB2 radioligand binding assay ([3H]CP-55,940 competition)
// returns Not fulfilled unless Ki is strictly below 0.01 µM, in which case Fulfilled

> print(dat)
                                   compound    label.class
1  CCCCc1cn(C(C)(C)C)s/c1=N\C(=O)[C@@]1(C)CC[C@@H](NC(=O)NC)C1(C)C  Not fulfilled
2  CC/C=C\c1cn(C(C)(C)C)s/c1=N\C(=O)c1cc(Cl)ccc1OC  Not fulfilled
3  COc1ccc(Cl)cc1C(=O)/N=c1\sn(C(C)(C)C)cc1CCC1CCC1      Fulfilled
4  CCCCc1cn(C(C)(C)C)s/c1=N\C(=O)c1cc(Cl)ccc1OCC(F)(F)F      Fulfilled
5  CCCCc1cn(C(C)(C)C)s/c1=N\C(=O)c1cc(Cl)ccc1OCC(N)=O  Not fulfilled
6  COc1ccc(Cl)cc1C(=O)/N=c1\sn(C(C)(C)C)cc1C(O)C(C)C (centres unmarked)  Not fulfilled

[ask] # TODO verify Ki < 0.01 µM strictly for this compound: CCCCc1cn(C(C)(C)C)s/c1=N\C(=O)C1(C)CCC(C(=O)OC)C1(C)C (racemic)
[reply] Fulfilled

----------
molecular target: rat CB2 (Rattus norvegicus); experiment: rat CB2 radioligand binding assay ([3H]CP-55,940 competition); set-up: expressed in transfected cells; host or cells: HEK293
Sequence (Q9QZN9 whole entry): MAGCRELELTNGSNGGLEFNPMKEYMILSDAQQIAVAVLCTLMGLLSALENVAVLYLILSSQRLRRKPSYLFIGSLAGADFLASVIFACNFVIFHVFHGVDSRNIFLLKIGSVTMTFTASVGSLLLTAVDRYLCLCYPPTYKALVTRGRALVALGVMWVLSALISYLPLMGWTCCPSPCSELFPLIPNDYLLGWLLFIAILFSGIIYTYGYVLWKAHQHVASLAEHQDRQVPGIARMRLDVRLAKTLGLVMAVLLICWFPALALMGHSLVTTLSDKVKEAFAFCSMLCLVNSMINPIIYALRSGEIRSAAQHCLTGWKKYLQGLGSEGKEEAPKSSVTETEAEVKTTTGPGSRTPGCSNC
METRIC: pKi
Give bare numbers, as −log10 of the molar value.

The following compounds have reported results that may help.
> print(dat)
                                   compound  readout.number
1  COc1ccc(Cl)cc1C(=O)/N=c1\sn(C(C)(C)C)cc1CCCC(C)(C)O            8.07
2  CCCCc1cn(C(C)(C)C)s/c1=N\C(=O)[C@H]1CC[C@@](C)(C(=O)NC)C1(C)C            6.49
3  CCCCc1cn(C(C)(C)C)s/c1=N\C(=O)[C@H]1CC[C@@](C)(C(=O)OC)C1(C)C            8.77
4  CCCCc1cn(C(C)(C)C)s/c1=N\C(=O)[C@]1(C)CC[C@H](NC(=O)N(C)c2ccccc2)C1(C)C            7.48
5  CCCCc1cn(C(C)(C)C)s/c1=N\C(=O)c1cc(C(F)(F)F)ccc1OC            9.37

Can you give me pKi for all of these, one by one?
1. COc1ccc(Cl)cc1C(=O)/N=c1\sn(C(C)(C)C)cc1C(O)CC1CCC1 (stereo not drawn)
2. COc1ccc(Cl)cc1C(=O)/N=c1\sn(C(C)(C)C)cc1C(O)c1cccs1 (stereo not drawn)
3. COc1ccc(Cl)cc1C(=NC#N)/N=c1\sn(C(C)(C)C)cc1CCCC#N
4. CCCCc1cn(C(C)(C)C)s/c1=N\C(=O)[C@@H]1CC[C@](C)(NC(=O)NC)C1(C)C
5. COc1ccc(Cl)cc1C(=O)/N=c1\sn(C(C)(C)C)cc1CCC1CCC1
6. CCCCc1cn(C(C)(C)C)s/c1=N\S(=O)(=O)c1cc(Cl)ccc1OC
7. CCCCc1cn(C(C)(C)C)s/c1=N\S(=O)(=O)c1ccccc1

[reply]
1: 9.00; 2: 8.68; 3: 8.24; 4: 7.40; 5: 9.80; 6: 7.48; 7: 7.48

Can you give me pKi for all of these, one by one?
1. CCCCc1cn(C(C)(C)CF)s/c1=N\C(=O)c1cc(C(F)(F)F)ccc1OC
2. COc1ccc(Cl)cc1C(=O)/N=c1\sn(C(C)(C)C)cc1CCN1CCOCC1
3. CCCCc1cn(C(C)(C)C)s/c1=N\C(=O)[C@]1(C)CC[C@H](C(=O)N2CC(O)C2)C1(C)C
4. CCCCc1cn(C(C)(C)C)s/c1=N\C(=O)c1cc(C(F)(F)F)ccc1OC[C@@H]1COC(=O)N1
5. CCCCc1cn(C(C)(C)C)s/c1=N\C(=O)c1cc(C(F)(F)F)ccc1OCC(C)(C)O
6. CCCCc1cn(C(C)(C)C)s/c1=N\C(=O)[C@]1(C)CC[C@H](NC(=O)N2CCC2)C1(C)C

[reply]
1. 9.10
2. 7.92
3. 7.43
4. 8.12
5. 8.36
6. 7.11

Can you give me pKi for all of these, one by one?
1. CCCCc1cn(C(C)(C)C)s/c1=N\C(=O)C1CCC(C)(C(=O)O)C1(C)C (stereo not drawn)
2. CCCCc1cn(C(C)(C)C)s/c1=N\C(=O)c1cc(C(F)F)ccc1OC

[reply]
1: 7.77; 2: 8.80

----------
target: human CB2 receptors (Homo sapiens, UniProt P34972); construct: expressed in transfected cells; host or cells: HEK293; assay: human CB2 radioligand binding assay ([3H]CP-55,940 competition)
pKi: −log10 of the molar value.
The threshold is inclusive: pKi of exactly 8 counts as Satisfied; values below receive Not satisfied.

> print(dat)
                                   compound                        measurement.target    label.class
1  CCCCc1cn(C(C)(C)C)s/c1=N\C(=O)[C@]1(C)CC[C@H](NC(=O)c2ccccc2)C1(C)C [Example 251]  human CB2 receptors (Homo sapiens, UniProt P34972)  Not satisfied

[ask] Record CCCCc1cn(C(C)(C)C)s/c1=N\C(=O)[C@]1(C)CC[C@H](C2=NCCCO2)C1(C)C [Example 243] ; criterion: pKi no lower than 8. Met?
[reply] Not satisfied

[ask] Record C#CCNC(=O)[C@@H]1CC[C@](C)(C(=O)/N=c2\sn(C(C)(C)C)cc2CCCC)C1(C)C [Example 239] ; criterion: pKi no lower than 8. Met?
[reply] Not satisfied

----------
target: human CB2 receptors (Homo sapiens); construct: expressed in transfected cells; host or cells: HEK293; assay: human CB2 radioligand binding assay ([3H]CP-55,940 competition)
Kindly supply the reported Ki values for the records listed here.
Numbers only, in µM.

The following compounds have reported results that may help.
> print(dat)
                                   compound  measurement.unit  readout.number
1  CCCCc1cn(C(C)(C)C)s/c1=N\C(=O)[C@@H]1CC[C@](C)(C(=O)NC)C1(C)C                µM           0.012
2  COc1ccc(Cl)cc1C(=O)/N=c1\sn(C(C)(C)C)cc1CCC(C)=O                µM           0.042
3  CCCCc1cn(C(C)(C)C)s/c1=N\C(=O)[C@]1(C)CC[C@H](C(=O)OC)C1(C)C                µM         0.00016
4  COc1ccc(Cl)cc1C(=O)/N=c1\sn(C(C)(C)C)cc1CCN=[N+]=[N-]                µM           0.026
5  CCCCc1cn(C(C)(C)C)s/c1=N\C(=O)c1cc(Cl)ccc1OCC#N                µM           0.013

Can you give me Ki for all of these, one by one?
1. CCCCc1cn(C(C)(C)C)s/c1=N\C(=O)[C@@]1(C)CC[C@@H](C(=O)NC)C1(C)C
2. CCCCc1cn(C(C)(C)C)s/c1=N\C(=O)C1(C)CCC(C(=O)N(C)C)C1(C)C (stereo not drawn)
3. CCCCc1cn(C(C)(C)C)s/c1=N\C(=O)[C@]1(C)CC[C@H](NC(C)=O)C1(C)C

[reply]
1: 0.053; 2: 0.056; 3: 0.019

[ask] Return Ki (reported value) for this compound: C=CCc1cn(C(C)(C)C)s/c1=N\C(=O)c1cc(Cl)ccc1OC
[reply] 0.21
